# Test system: Platelet aggregation (ADP, rabbit platelet rich plasma)
# ASSAY REMARKS: Platelet aggregation inhibition in rabbit PRP, ADP-induced, Born's turbidimetry (Experiment 1)
# Assay type: cell-based
# PROTOCOL CONDITIONS: Oryctolagus cuniculus, 0.05 h, 10^-6 g/ml, ADP 2 to 4 μM, 3 min incubation, read-out: Aggregation Inhibition Rate
PROPERTY: inhibition at 1 µg/mL (%)

>>> numeric_result("COc1ccc(SCCOc2n[nH]c(=O)c(Cl)c2NCc2ccc(OC)c(OC)c2)cc1 [Compound 35]")
100
>>> numeric_result("COc1ccc(CNc2c(OCCSc3cccc(Cl)c3)n[nH]c(=O)c2Br)cc1OC [Compound 20]")
100
>>> numeric_result("COc1ccc(S(=O)(=O)CCOc2n[nH]c(=O)c(Cl)c2NCc2ccc(OC)c(OC)c2)cc1 [Compound 36]")
100
>>> numeric_result("COc1ccc(CNc2c(OCCSc3ccc(C#N)cc3)n[nH]c(=O)c2Br)cc1OC [Compound 37]")
100
>>> numeric_result("COc1ccc(CNc2c(OCCSc3ccc(Cl)cc3)n[nH]c(=O)c2Cl)cc1OC [Compound 24]")
100
>>> numeric_result("COc1ccc(CNc2c(OCC[S+]([O-])c3ccccc3)n[nH]c(=O)c2Br)cc1OC (stereo not shown) [Compound 8]")
100
>>> numeric_result("COc1ccc(SCCOc2n[nH]c(=O)c(Cl)c2NCc2cccnc2)cc1 [Compound 34]")
100

----------
Measured inhibition in vivo at 3 mg/kg by item
# System: thrombocytopenia in mice (collagen-induced, platelet count)
# ASSAY REMARKS: Activity of preventing thrombocytopenia in mice, collagen i.v. (Experiment 3)
# Assay type: in vivo, male ddY mice
# PROTOCOL CONDITIONS: Mus musculus, 3.0 mg/kg oral, 1 hour before collagen 0.5 mg/kg i.v., * p = 5%, ** p = 1%, *** p = 0.1%, read-out: Average Inhibition Rate (platelet count; normal mouse 100, control mouse 0)
PROPERTY: inhibition in vivo at 3 mg/kg (%)

>>> numeric_result("COc1ccc(CNc2c(OCCCc3ccccc3)n[nH]c(=O)c2Br)cc1OC [C, reference compound]")
27.4
>>> numeric_result("COc1ccc(CNc2c(OCCSc3ccccc3)n[nH]c(=O)c2Br)cc1OC")
33
>>> numeric_result("COc1ccc(CNc2c(OCC[S+]([O-])c3ccc([N+](=O)[O-])cc3)n[nH]c(=O)c2Br)cc1OC (stereo not shown)")
40.8
>>> numeric_result("COc1ccc(CNc2c(OCC[S+]([O-])c3ccccc3)n[nH]c(=O)c2Br)cc1OC (stereo not shown)")
45
>>> numeric_result("COc1ccc(CNc2c(OCCSc3ccccc3Cl)n[nH]c(=O)c2Br)cc1OC")
30.1
>>> numeric_result("COc1ccc(CNc2c(OCCSc3ccc(C#N)cc3)n[nH]c(=O)c2Br)cc1OC")
35.4
>>> numeric_result("COc1ccc(CNc2c(OCCS(=O)(=O)c3ccc(F)cc3)n[nH]c(=O)c2Br)cc1OC")
35.7
>>> numeric_result("COc1ccc(CNc2c(OCC[S+]([O-])c3ccc(F)cc3)n[nH]c(=O)c2Br)cc1OC (stereo not shown)")
52.4
>>> numeric_result("COc1ccc(CNc2c(OCC[S+]([O-])c3ccc(C#N)cc3)n[nH]c(=O)c2Br)cc1OC (stereo not shown)")
21.8
>>> numeric_result("COc1ccc(CNc2c(OCC[S+]([O-])c3ccccc3Cl)n[nH]c(=O)c2Br)cc1OC (stereo not shown)")
33.8
>>> numeric_result("COc1ccc(CNc2c(OCCSc3ccccc3)nn(CN3CCOCC3)c(=O)c2Br)cc1OC")
43
>>> numeric_result("COc1ccc(CNc2c(OCCSc3ccc(F)cc3)n[nH]c(=O)c2Br)cc1OC")
23.3
>>> numeric_result("COc1ccc(CNc2c(OCCSc3ccc([N+](=O)[O-])cc3)n[nH]c(=O)c2Br)cc1OC")
30.4
